Experiment: Acute toxicity in rabbits
Conditions: rabbit, in vivo; intravenous administration to rabbits; read-out: survival dose values (LD50)
Measured attribute: LD50 (mg/kg)
Value expressed in mg/kg; do not type the unit.

Exam item: Item "C[N+](C)(CC(=O)Nc1ccccc1)CC(=O)Nc1ccccc1.[Cl-]" has what recorded LD50?
Marked response: 17
